Reported pIC50 by item:
System: NCI-H1975 human non-small cell lung cancer cells
Experiment: Inhibitory effect of compounds on proliferation of NCI-H1975 cells (Cell Counting-Lite 2.0, 72 h)
Type: cell-based
Conditions: Table 10, incubated for 72 hours
Give only the number. pIC50 is defined as minus log10 of concentration in molar units.

Example entries and their recorded answers appear below.
compound="COc1cc2c(cc1OCCCCCOc1cc3c(cc1OC)C(=O)N1CC4(CC4)C[C@H]1CN3)NC[C@@H]1CC(c3csc(CO)c3)=CN1C2=O [Compound 7-38]" test_target="NCI-H1975 human non-small cell lung cancer cells" reported_endpoint=pIC50 value=6.98
compound="COc1cc2c(cc1OCCCCCOc1cc3c(cc1OC)C(=O)N1CC4(CC4)C[C@H]1CN3)NC[C@@H]1CC3(CC3)CN1C2=O [Compound 7-9]" test_target="NCI-H1975 human non-small cell lung cancer cells" reported_endpoint=pIC50 value=6.97
compound="COc1cc2c(cc1OCCCCCOc1cc3c(cc1OC)C(=O)N1CC4(CC4)C[C@H]1CN3)NC[C@@H]1CC(c3ccoc3)=CN1C2=O [Compound 7-36]" test_target="NCI-H1975 human non-small cell lung cancer cells" reported_endpoint=pIC50 value=6.95
compound="COc1ccc(C2=CN3C(=O)c4cc(OC)c(OCCCCCOc5cc6c(cc5OC)C(=O)N5CC(F)(F)C[C@H]5CN6)cc4NC[C@@H]3C2)cc1 [Compound 7-39]" test_target="NCI-H1975 human non-small cell lung cancer cells" reported_endpoint=pIC50 value=7.91

# evaluate next
Given COc1cc2c(cc1OCCCCCOc1cc3c(cc1OC)C(=O)N1CC4(CC4)C[C@H]1CN3)NC[C@@H]1CC(c3ccc(N)cc3)=CN1C2=O [Compound 7-5] , respond with its pIC50. 7.91

* * *

Test system: NCI-H1975 human non-small cell lung cancer cells
Assay: Inhibitory effect of compounds on proliferation of NCI-H1975 cells (Cell Counting-Lite 2.0, 72 h)
Format: cell-based
Settings: Table 10, incubated for 72 hours
reported_endpoint: pIC50
As a rule, pIC50 stands for the negative log10 of the concentration, concentration in M.

smiles_text=C=C1C[C@H]2CNc3cc(OCCCCCOc4cc5c(cc4OC)C(=O)N4C=C(c6ccc(OC)cc6)C[C@H]4CN5)c(OC)cc3C(=O)N2C1 value=7.16
smiles_text=COc1cc2c(cc1OCCCCCOc1cc3c(cc1OC)C(=O)N1CC4(CC4)C[C@H]1CN3)NC[C@@H]1CC(c3ccsc3)=CN1C2=O value=7.00

Next item in the queue.
Consider the compound `COc1cc2c(cc1OCCCCCOc1cc3c(cc1OC)C(=O)N1CC4(CC4)C[C@H]1CN3)NC[C@@H]1CC(c3ccc(O)cc3)=CN1C2=O` . State its measured pIC50. 6.91

* * *

Test system: HCC827 human non-small cell lung cancer cells
Experiment: Inhibitory effect of compounds on HCC827 cell proliferation (Cell Counting-Lite 2.0, 72 h)
Assay type: cell-based
Settings: Table 6, incubated for 72 hours, read-out: Inhibition activity of compounds on proliferation of HCC827 cells IC50
reported_endpoint: pIC50
Please treat pIC50 as minus the base-10 logarithm of the molar concentration.

smiles_text=COc1cc2c(cc1OCCCCCOc1cc3c(cc1OC)C(=O)N1CC4(CC4)C[C@H]1CN3)NC[C@@H]1CC(c3ccc(N)cc3)=CN1C2=O test_target="HCC827 human non-small cell lung cancer cells" value=7.88
smiles_text=COc1cc2c(cc1OCCCCCOc1cc3c(cc1OC)C(=O)N1CC4(CC4)C[C@H]1CN3)NC[C@@H]1CC(c3ccsc3)=CN1C2=O test_target="HCC827 human non-small cell lung cancer cells" value=6.91
smiles_text=COc1cc2c(cc1OCCCCCOc1cc3c(cc1OC)C(=O)N1CC4(CC4)C[C@H]1CN3)NC[C@@H]1CC(c3csc(CO)c3)=CN1C2=O test_target="HCC827 human non-small cell lung cancer cells" value=6.86

Output measured pIC50 for this item: `COc1cc2c(cc1OCCCCCOc1cc3c(cc1OC)C(=O)N1CC4(CC4)C[C@H]1CN3)NC[C@@H]1CC3(CC3)CN1C2=O` 6.94

Using known records, supply pIC50 for `COc1cc2c(cc1OCCCCCOc1cc3c(cc1OC)C(=O)N1CC4(CC4)C[C@H]1CN3)NC[C@@H]1CC(c3ccoc3)=CN1C2=O` 6.90

# return recorded pIC50 for entry `C=C1C[C@H]2CNc3cc(OCCCCCOc4cc5c(cc4OC)C(=O)N4C=C(c6ccc(OC)cc6)C[C@H]4CN5)c(OC)cc3C(=O)N2C1` 6.65
